Test system: P388
Experiment: Cytotoxicity against mouse P388 cells
Format: functional, cell-based
Rule: measured IC50 below 8 µg/mL gets yes; anything equal to or greater than 8 µg/mL gets no.

The examples below pair each entry with its known result.
> print(dat)
                                   molecule  class.assignment
1  O=C1C=C[C@]2(OC(=O)c3cccc(Cl)c3)CCO[C@@H]2C1               yes
2  CCCCCCCC(=O)O[C@]12C=CC(O)C[C@H]1OCC2 (stereo not given in full)                no
3  O=C1C=C[C@]2(OC(=O)c3ccccc3)CCO[C@@H]2C1               yes

Query: Does the reported IC50 of the following molecule sit strictly below 8 µg/mL? CCCC(=O)O[C@]12C=CC(=O)C[C@H]1OCC2
Reply: yes

Query: Identify whether the molecule OC1C=C[C@]2(O)CCO[C@@H]2C1 (stereo not given in full) records IC50 below 8 µg/mL.
Reply: no

Query: Problem: For the molecule CC(=O)O[C@]12C=CC(O)C[C@H]1OCC2 (stereo not given in full) , is IC50 under 8 µg/mL?
Reply: no

Query: Please state whether IC50 is below 8 µg/mL for O=C1CC[C@]2(O)CCO[C@@H]2C1
Reply: no

Query: Hello, is IC50 of the following molecule strictly smaller than 8 µg/mL? O=C1C=C[C@]2(OC(=O)c3ccc(Cl)cc3)CCO[C@@H]2C1
Reply: yes

Query: Below 8 µg/mL on IC50? Entry CC(=O)O[C@]12C=CC(=O)C[C@H]1OCC2
Reply: yes

Query: Consider CCCC(=O)O[C@]12C=CC(O)C[C@H]1OCC2 (stereo not given in full) . Does its IC50 lie strictly below 8 µg/mL?
Reply: no

Query: Determine if CCCCCC(=O)O[C@]12C=CC(O)C[C@H]1OCC2 (stereo not given in full) shows IC50 strictly lower than 8 µg/mL.
Reply: no

Query: Take the molecule O=C1C=C[C@]2(OC(=O)c3ccccc3Cl)CCO[C@@H]2C1 and say whether its IC50 is less than 8 µg/mL.
Reply: yes
